Biological target: T1, Tumor Necrosis Factor-alpha (TNF-α), R&D systems 210-TA / 210-TA-CF (human, UniProt P01375 77-233)
T1 construct: Bought protein; also called huTNF-α
T1 sequence (P01375 77-233 limits assumed): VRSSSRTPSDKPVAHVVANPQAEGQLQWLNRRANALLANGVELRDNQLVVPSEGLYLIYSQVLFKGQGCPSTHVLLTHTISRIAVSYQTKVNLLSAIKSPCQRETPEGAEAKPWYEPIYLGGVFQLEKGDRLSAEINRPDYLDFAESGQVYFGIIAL
Experiment: biolayer interferometry (Octet QK); biotinylated TNF-α on streptavidin sensor, antibody 8 nM to 1 nM
Description: Binding kinetics of certain Anti-TNF-α antibodies referenced in this experiment were determined using biolayer Interferometry on an Octet QK instrument (ForteBio, Menlo Park, Calif.). […] Binding was monitored as an increase in signal over a period of 900 seconds. Sensors removed from the antibody dilutions and immediately incubated in diluent were monitored for a dissociation phase over an 1800 second time period. […]
pKd: −log10 of the molar value.
assay readout: pKd

INSERT INTO results (binder, observed_measurement) VALUES
  ('anti-TNF-α antibody Ab7 (antibody, V domains shown) VH: QSVEESGGRLVTPGTPLTLTCTVSGFSLSSDNMGWVRQAPGKGLEYIGYITYGGFTYYATWAKGRFTISKTSTTVDLKMTSPTTEDTATYFCAREAGGRANV VL: ADIVMTQTPASVEAAVGGTVTINCQASQSIVSWLAWYQQKPGQPPKLLIYGASTLASGVPSRFKGSGSGTEYTLTISDLECADAATYYCQSNYGSNSHSFGNT', 11.00),
  ('anti-TNF-α antibody Ab1 (antibody, V domains shown, Rabbit-derived; they start with the leader peptide and end at CDR3 (no framework 4); no cleavage site is stated for this antibody) VH: QSVEESGGRLVTPGTPLTLTCTVSGFSLSTYNMGWVRQAPGKGLEYIGYVLGSGITYYASWAKGRFTISKTSTTVDLEITSPTTEDTATYFCARDAGGRASL VL: ADIVMTQTPASVEAAVGGTVTIKCQASQNIRSWLAWYQQKPGQPPKLLIYGASTLASGVPSRFQGSGSGTEYTLTIIDLDCADAATYYCQSNYGSNDNSYGNG', 11.00),
  ('anti-TNF-α antibody Ab6 (antibody, V domains shown) VH: METGLRWLLLVAVFKGVQCQSVEESGGRLVTPGTPLTLTCTVSGFSLSSNTISWVRQAPGKGLEWIGYIWRGVSTYYATWAKGRFTISKTSSTTVDLKITGPTTEDTATYFCARDAGDGGGYSLDL VL: MDTRAPTQLLGLLLLWLPDARCAYDMTQTPASVEVAGGGTVTIKCQASQSIANRLAWYQQKPGQPPKLLIYYASTLASGVPSRFSGSGSGTEFTLTISGVQCDDAATYYCQQTYSDNNVDNA', 11.00);

src = patent US20090022659A1
